settings: 298.15 K; 101.33 kPa; Liquid; Capillary tube (Ostwald / Ubbelohde) method

| molecule | viscosity (mPa·s) |
| --- | --- |
| C1COCCO1 | 1.224 |
| OCCO | 16.39 |
| O | 0.8904 |
| C[S+](C)[O-] [dimethyl sulfoxide] | 2.042 |
| C1CCOC1 [tetrahydrofuran] | 0.463 |
| CN(C)C=O [dimethylformamide] | 0.8586 |

====

conditions: 318.15 K; 101.33 kPa; Liquid; Capillary tube (Ostwald / Ubbelohde) method
Kindly return t if reported viscosity is no lower than 0.8 mPa·s; return f if it is lower.

| molecule | classification |
| --- | --- |
| OCCO | t |
| O | f |
| C1CCOC1 [tetrahydrofuran] | f |
| CN(C)C=O [dimethylformamide] | f |
| C[S+](C)[O-] [dimethyl sulfoxide] | t |
